- System: DeltatarO mutant
- Assay Method Text: S. aureus survival, RN4220 and DeltatarO strains – OD600, teichoic acid synthesis inhibitors, primary screen (AID 463173)
- Stated Conditions: S. aureus RN4220 wild type/DeltatarO growth, OD600, 18 h, screened at 18.75 µg/mL (by protocol)
Hit rate of the full screen: of about 52,000 compounds, about 4,300 (8.3%) were called active. No stated cut-off is given here; in the data, active means survival mostly below about 52% (no sharp cut-off); inactive means mostly above about 56%. The entries come from a sample that favours actives as a whole.
The categories you may choose from are t (active), f (inactive)

Some solved entries appear below for comparison.
Compound	Label Class
Cc1cc(NC(=O)c2ccc(-c3ccc(Cl)cc3)o2)cc(-c2nc3ncccc3o2)c1O	f
O=C(C1CCC(Cn2c(=O)c3sccc3n(Cc3ccccc3)c2=O)CC1)N1CCCCC1 (configuration not stated)	f

Incoming: What is the recorded call for this compound in the test? Cc1ccc2nc(-c3ccccc3O)c(Nc3ccccc3C)n2c1
Outgoing: f

Incoming: What is the recorded call for this compound in the test? O=C(Nc1nccs1)c1cccc(C(=O)Nc2nccs2)c1
Outgoing: f

Incoming: What is the recorded call for this compound in the test? CCN(CC)C(=O)c1sc2c(c1C)c(=O)n(CCc1ccccc1)c(=O)n2Cc1cccc(Cl)c1
Outgoing: f

Incoming: What is the recorded call for this compound in the test? Cc1ccc(-c2nc3ncccc3o2)cc1NC(=O)c1ccc(-c2cccc(Cl)c2C)o1
Outgoing: f

Incoming: What is the recorded call for this compound in the test? CCOc1ccccc1CNC(=O)CCCn1nc(C)c2sc3ccccc3c2c1=O
Outgoing: f

Incoming: What is the recorded call for this compound in the test? COc1ccc(Br)cc1C(=O)Nc1ccc(-c2nc3ncccc3o2)cc1C
Outgoing: f

Incoming: What is the recorded call for this compound in the test? COc1ccc(C2NC(=O)NC(C)=C2C(=O)Nc2ccccc2)cc1OC (configuration not stated)
Outgoing: f

Incoming: What is the recorded call for this compound in the test? C[n+]1ccn(CC(=O)c2ccccc2)c1
Outgoing: f

Incoming: What is the recorded call for this compound in the test? COc1ccc(OC)c(CNc2ncc(-c3ccc(Cl)cc3)n2C)c1
Outgoing: t

Incoming: What is the recorded call for this compound in the test? CCOc1ccc2nc(N3CCCC(C(=O)Nc4ccc(OC)cc4)C3)sc2c1 (configuration not stated)
Outgoing: f

Incoming: What is the recorded call for this compound in the test? O=C(Nc1nccs1)c1ccc(-c2ccc(Cl)cc2)o1
Outgoing: t

Incoming: What is the recorded call for this compound in the test? COc1ccccc1N1CCN(C(=O)c2ccc(Nc3nc4ccccc4n4nnnc34)cc2)CC1
Outgoing: f

---

- Tested on: DeltatarO mutant
- Assay Method Text: S. aureus survival, RN4220 and DeltatarO strains – OD600, teichoic acid synthesis inhibitors, primary screen (AID 463173)
- Stated Conditions: S. aureus RN4220 wild type/DeltatarO growth, OD600, 18 h, stronger effect = lower value, screened at 18.75 µg/mL (by protocol)
In all, about 52,000 compounds went through this assay and about 4,300 (8.3%) were called active. What follows is part of a selection rich in actives, with near analogues and random picks from the rest.
Recorded survival by entry
Output spec: scalar in %, unitless text.

Before answering, review these 2 worked examples.
Smiles Structure	Unit Info	survival
Cc1cccc(C(=O)Nc2sc3c(c2C(=O)Nc2ccccc2)CCC3)c1	%	66
CCOC(=O)c1cnc2c(C)cc(C)cc2c1Nc1ccc(N2CCOCC2)cc1	%	14

Incoming: Recorded survival for CCOC(=O)c1cnc2ccc(OCC)cc2c1NCCN(C)C , please?
Outgoing: 95

Incoming: Recorded survival for CCOC(=O)c1cc(-c2ccc(C)cc2)n(CC(=O)Nc2ccc(OC)cc2OC)c1C , please?
Outgoing: 97

Incoming: Recorded survival for COc1ccc(NC(=O)c2c(NC(=O)c3cccc(C)c3)sc3c2CCC3)cc1 , please?
Outgoing: 64

---

- System: DeltatarO mutant
- Assay Method Text: S. aureus survival, RN4220 and DeltatarO strains – OD600, teichoic acid synthesis inhibitors, primary screen (AID 463173)
- Stated Conditions: S. aureus RN4220 wild type/DeltatarO growth, OD600, 18 h, stronger effect = lower value, screened at 18.75 µg/mL (by protocol)
Out of some 52,000 compounds screened, about 4,300 (8.3%) were called active. The sample as a whole holds a higher share of actives than the screen did.
Recorded survival by entry
Output spec: scalar in %, unitless text.

Compound	Tested On	Unit Info	survival
Cc1cccc(/C=C(\C#N)c2nc3ccccc3c(=O)[nH]2)c1	DeltatarO mutant	%	91

Incoming: Recorded survival for Cc1ccc(Cn2c(SCc3ccc(C(=O)N4CCCCCC4)cc3)nc3ccncc32)cc1 , please?
Outgoing: 71

Incoming: Recorded survival for COc1ccc(NC(=O)c2ccco2)cc1NC(=O)COc1ccc(C)cc1C , please?
Outgoing: 56

Incoming: Recorded survival for COc1cc2c(cc1OC)C(COc1cc(C)cc(C)c1)N(C(=O)c1ccc(S(=O)(=O)N3CCCC3)cc1)CC2 (stereo not given) , please?
Outgoing: 73

Incoming: Recorded survival for Cc1cc(Nc2ccc(F)cc2)nc(-n2nc(C)cc2C)n1 , please?
Outgoing: 70

Incoming: Recorded survival for COc1ccc(NC(=O)C(C)n2nc(-c3cc(C)ccc3C)c3c(c2=O)CCCC3)cc1 (stereo not given) , please?
Outgoing: 38

---

- System: DeltatarO mutant
- Assay Method Text: S. aureus survival, RN4220 and DeltatarO strains – OD600, teichoic acid synthesis inhibitors, primary screen (AID 463173)
- Stated Conditions: S. aureus RN4220 wild type/DeltatarO growth, OD600, 18 h, screened at 18.75 µg/mL (by protocol)
The campaign covered roughly 52,000 compounds. About 4,300 (8.3%) were called active. Rule as the data show it: active = survival mostly below about 52% (no sharp cut-off); inactive = mostly above about 56%. The sample holds actives, similar compounds and a random draw of the others, so the mix is not that of the screen.
The categories you may choose from are T for active, F for inactive

Molecule	Label Class
Cc1ccc2c(=O)cc(C(=O)Nc3ccc(S(=O)(=O)N4CCCCC4)cc3)oc2c1C	F
O=C(Nc1ccc(S(=O)(=O)N2CCCCC2)cc1)C1CCCCC1	F
Cc1c(Cl)cccc1N1C(N)=C(C#N)C(c2cc(CN3CCOCC3)cs2)C2=C1CCCC2=O (configuration not stated)	F
Nc1ccc(N2CCOCC2)c(N)c1	F
Fc1ccc(-n2cc(-c3ccccc3)c3c(NC4CCCCC4)ncnc32)cc1	F
O=C(CN1CCN(C2CCCCC2)C(=O)C1=O)Nc1ccc(Cl)cc1	F
Cc1ccc2c(=O)cc(C(=O)Nc3ccc(S(=O)(=O)N4CCCC(C)C4)cc3)oc2c1C (configuration not stated)	T
Nc1ccc(-c2ccc(N)cc2C(F)(F)F)c(C(F)(F)F)c1	F

Incoming: What is the recorded call for this molecule in the test? CCOc1cc(CNC(=O)C2COc3ccccc3C2)cc(OCC)c1OCC (configuration not stated)
Outgoing: F

Incoming: What is the recorded call for this molecule in the test? CCN(CC)CC(=O)N1CCCC1=O
Outgoing: F

---

- Test system: DeltatarO mutant
- Assay Method Text: S. aureus survival, RN4220 and DeltatarO strains – OD600, teichoic acid synthesis inhibitors, primary screen (AID 463173)
- Stated Conditions: S. aureus RN4220 wild type/DeltatarO growth, OD600, 18 h, screened at 18.75 µg/mL (by protocol)
The whole screen tested about 52,000 compounds, of which about 4,300 (8.3%) were called active. Cut-off read from the data, not from the text of the source: active = survival mostly below about 52% (no sharp cut-off); inactive = mostly above about 56%. Many of the other results were omitted from the sample, so actives are more common in it than they were.
The categories you may choose from are true (1) (active), false (0) (inactive)

Compound	Label Class
Cc1ccccc1C(=O)Nc1sc2c(c1C(=O)N1CCCCC1)CCC(C(C)(C)C)C2 (configuration not stated)	true (1)
CC(=O)Nc1cc2c(cc1C(=O)c1ccccc1)OCCO2	false (0)
Cc1ccc(C)c(N2CCN(c3nc4ccccc4n4c(C)nnc34)CC2)c1	false (0)

Incoming: What is the recorded call for this compound in the test? CN(C)C(=O)c1c(NC(=O)c2ccccc2F)sc2c1CCCC2
Outgoing: false (0)

Incoming: What is the recorded call for this compound in the test? O=C(O)c1cc(NC2(c3ccccc3)C(=O)c3ccccc3C2=O)ccc1Cl
Outgoing: false (0)

---

- Tested on: DeltatarO mutant
- Assay Method Text: S. aureus survival, RN4220 and DeltatarO strains – OD600, teichoic acid synthesis inhibitors, primary screen (AID 463173)
- Stated Conditions: S. aureus RN4220 wild type/DeltatarO growth, OD600, 18 h, stronger effect = lower value, screened at 18.75 µg/mL (by protocol)
Hit rate of the full screen: of about 52,000 compounds, about 4,300 (8.3%) were called active. Only a selection was taken, and actives are over-represented in it overall.
# note: exactly 90% is not below, so it is FALSE; use TRUE for survival strictly under it

Compound	Tested On	Label Class
Cn1c(=O)c2sccc2n2c(CCC(=O)N3CCN(c4cccc(Cl)c4)CC3)nnc12	DeltatarO mutant	FALSE
CC(CNC(=O)c1ccc2c(c1)nc1n2CCCCC1)c1ccccc1 (stereo not given)	DeltatarO mutant	TRUE
Cc1cc(OC(C)C(=O)N2CCN(CCc3ccccn3)CC2)ccc1Cl (stereo not given)	DeltatarO mutant	TRUE

Here is another compound to look at.
Incoming: Determine if O=C(Nc1cccc(C(F)(F)F)c1)c1cccs1 shows survival strictly lower than 90%.
Outgoing: FALSE
